# Study Target: Glucocorticoid receptor (Homo sapiens) (UniProt P04150)
# Sequence (P04150 whole entry, looked up): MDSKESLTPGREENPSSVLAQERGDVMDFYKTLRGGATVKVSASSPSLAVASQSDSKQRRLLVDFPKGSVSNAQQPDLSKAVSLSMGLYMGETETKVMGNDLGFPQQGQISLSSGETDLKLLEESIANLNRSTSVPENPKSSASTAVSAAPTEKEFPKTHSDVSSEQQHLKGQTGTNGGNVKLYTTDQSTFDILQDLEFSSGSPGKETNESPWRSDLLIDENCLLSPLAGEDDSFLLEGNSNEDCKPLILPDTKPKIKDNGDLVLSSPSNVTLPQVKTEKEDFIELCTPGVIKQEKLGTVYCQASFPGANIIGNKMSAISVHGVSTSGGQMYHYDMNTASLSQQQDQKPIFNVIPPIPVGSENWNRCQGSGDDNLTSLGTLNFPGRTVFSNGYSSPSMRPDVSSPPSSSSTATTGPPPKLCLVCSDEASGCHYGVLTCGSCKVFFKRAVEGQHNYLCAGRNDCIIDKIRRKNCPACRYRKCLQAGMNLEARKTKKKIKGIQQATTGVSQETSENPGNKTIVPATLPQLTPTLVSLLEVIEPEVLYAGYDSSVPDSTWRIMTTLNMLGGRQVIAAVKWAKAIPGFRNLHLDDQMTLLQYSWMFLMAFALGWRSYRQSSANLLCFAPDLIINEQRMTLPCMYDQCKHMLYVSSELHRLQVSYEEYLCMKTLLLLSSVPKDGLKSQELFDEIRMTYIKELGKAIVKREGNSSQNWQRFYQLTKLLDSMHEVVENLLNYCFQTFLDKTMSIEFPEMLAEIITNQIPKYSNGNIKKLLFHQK
# Assay Overview: qHTS assay to identify small molecule antagonists of the glucocorticoid receptor (GR) signaling pathway (AID 720692); note: % is set by controls: 0 for no effect and ±100 for the full control effect
# Condition Info: GR-bla HeLa, beta-lactamase FRET ratio, dexamethasone-stimulated, 18 h; series mostly up to 58.5 µM
Results filed as inconclusive are left out. Active and inactive are the calls of the source. Calls come from the whole dose curve; as a rule, active = well fitted inhibition curve with a large enough effect in the signal ratio in the repeat runs (not every such curve was filed as active); inconclusive = weak or mixed curves, or effect the other way; inactive = no such curve, though single readings can be large or run the other way; the % refers to the signal ratio.

Molecule	outcome
O=C(CO)[C@@H](O)[C@H](O)[C@H](O)CO	inactive
CCCO[Si](OCCC)(OCCC)OCCC	inactive
C[N+](C)(CCOc1ccccc1)Cc1cccs1	inactive
CC(=O)c1cnccn1	inactive
CN(C)[C@@H]1C(=O)C(C(=O)NCN2CCCC2)=C(O)[C@@]2(O)C(=O)C3=C(O)c4c(O)cccc4[C@@](C)(O)C3C[C@@H]12 (stereo not given in full)	inactive
COc1ccnc(CS(=O)c2nc3cc(OC(F)F)ccc3[nH]2)c1OC (stereo not given)	inactive
NC(=O)Cc1cccc2ccccc12	inactive
CCN1C=CN(C)C1C (stereo not given)	inactive
CC(C)CCCO	inactive
[K+]	inactive
CC1=NN(c2cccc(S(=O)(=O)O)c2)C(=O)C1	inactive
O=C(O)CCSCCC(=O)O	inactive
CC[C@H]1OC(=O)[C@H](C)[C@@H](O[C@H]2C[C@@](C)(OC)[C@@H](O)[C@H](C)O2)[C@H](C)[C@@H](O[C@@H]2O[C@H](C)C[C@H](N(C)C)[C@H]2O)[C@](C)(OC)C[C@@H](C)C(=O)[C@H](C)[C@@H](O)[C@]1(C)O	inactive
CCCCN1C=CN(C)C1	inactive
CC1(C)[C@@H]2CC[C@@]1(C)[C@H](O)C2	inactive
CCC(C)(CCCC(C)C)OC(C)=O (stereo not given)	inactive
CCCCCC(=O)OCCc1ccccc1	inactive
CCCCCCCCN1CCCC1=O	inactive
CCCCOCCOC(=O)COc1cc(Cl)c(Cl)cc1Cl	inactive
[O-][n+]1cccc(CO)c1	inactive
COc1cc(C(=O)OC(COCCC(C)C)CN2CCOCC2)cc(OC)c1OC (stereo not given)	inactive
O=C(O)CC(C(=O)O)S(=O)(=O)O (stereo not given)	inactive
CCOC(=O)C1=NOC(c2ccccc2)(c2ccccc2)C1	inactive
COCCOC[C@H](CC1(C(=O)NC2CCC(C(=O)O)CC2)CCCC1)C(=O)Oc1ccc2c(c1)CCC2 (stereo not given in full)	inactive
CC1(C)OC[C@@H](COC(=O)CCc2ccc(OC[C@@H](O)CNCCNC(=O)N3CCOCC3)cc2)O1	inactive

###

# Study Target: Nuclear receptor subfamily 1 group I member 3 (Homo sapiens)
# Assay Overview: qHTS assay to identify small molecule agonists of the constitutive androstane receptor (CAR) signaling pathway (AID 1224839);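 note: HepG2 cells stably carrying human CAR and a CYP2B6 luciferase reporter; % is set by controls: 0 for no effect and ±100 for the full control effect; nearly all actives have a fitted effect of over 15% in size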
# Condition Info: HepG2 hCAR CYP2B6-luciferase, agonist mode, 24 h; series mostly up to 92.4 µM
Records with an inconclusive call do not appear. Calls of active or inactive are those of the source. The call rests on the fitted dose curve; in most records, active means well fitted activation curve with a large enough effect in the repeat runs; inconclusive means weak or mixed curves; inactive means no such curve, though single readings can be large or run the other way.
Assay Endpoint: activation

>>> df
                                    molecule  assay_endpoint                   endpoint_value
 0  CCC(C)(CCCC(C)C)OC(C)=O (stereo not drawn)      activation                         inactive
 1  COc1ccccc1OCC1CNC(=O)O1 (stereo not drawn)      activation                         inactive
 2        O=C(CO)[C@@H](O)[C@H](O)[C@H](O)CO      activation                         inactive
 3            O=C(O)c1cc(C(=O)O)cc(C(=O)O)c1      activation                         inactive
 4          CC1CCC(CO)CC1 (stereo not drawn)      activation                         inactive
 5                                Nc1ccncc1N      activation                         inactive
 6                      CC(=O)c1ccc2ccccc2c1      activation                         inactive
 7  CCCCc1ccc2c(n1)[C@@H](c1ccc(OC)cc1C[C@H](C)C(=O)O)[C@H](C(=O)O)[C@H]2c1ccc2c(c1)OCO2      activation                         inactive
 8                                      [K+]      activation                         inactive
 9  Nc1ccn([C@@H]2O[C@H](CO)[C@@H](O)[C@@H]2O)c(=O)n1      activation                         inactive
10                          C1CCC2=NCCCN2CC1      activation                         inactive
11     CC(C)(C)c1ccc(-c2ccc(C(C)(C)C)cc2)cc1      activation                         inactive
12  C=CC(C)(CCC=C(C)C)OC(=O)CC (stereo not drawn)      activation                         inactive
13      CC/C=C\CCOC(C)OCC (stereo not drawn)      activation                         inactive
14  COc1ccnc(CS(=O)c2nc3cc(OC(F)F)ccc3[nH]2)c1OC (stereo not drawn)      activation                         inactive
15                          CN(C)CCCCCCN(C)C      activation                         inactive
16           Cc1cccc(C)c1NC(=O)CC12CCCN1CCC2      activation                         inactive
17                            CC(=O)c1cnccn1      activation                         inactive
18  CC[N+](CC)(CC)CCOc1cccc(OCC[N+](CC)(CC)CC)c1OCC[N+](CC)(CC)CC      activation                         inactive
19        COc1cc(-c2ccc(=O)[nH]n2)ccc1OC(F)F      activation                         inactive
20                   N[C@@H](CCC(=O)O)C(=O)O      activation                         inactive
21                        CCOC(=O)CCC(=O)OCC      activation                         inactive
22                   O=C(c1ccccc1O)c1ccccc1O      activation                         inactive
23          C[N+](C)(C)CCCCCCCCCC[N+](C)(C)C      activation                         inactive
24   CC1=CCC(O)(C(C)C)CC1 (stereo not drawn)      activation                         inactive
25                       CCCCCCCCCCCCCCCCCCO      activation                         inactive
26  CCOC(=O)COc1cc(-n2ncc(C(F)(F)F)c(C)c2=O)c(F)cc1Cl      activation                         inactive
27                     C[C@@H]1CCC[C@H](C)N1      activation                         inactive
28  Cc1nc2ccc(CN(C)c3ccc(C(=O)N[C@@H](CCC(=O)O)C(=O)O)s3)cc2c(=O)[nH]1      activation                         inactive
29   C=COCC1CCC(COC=C)CC1 (stereo not drawn)      activation                         inactive
30           NC(=O)N1c2ccccc2CC(=O)c2ccccc21      activation                         inactive
31  CNCC(O)c1ccc(O)c(O)c1 (stereo not drawn)      activation                         inactive
32  CCN[C@H]1C[C@H](C)S(=O)(=O)c2sc(S(N)(=O)=O)cc21      activation                         inactive
33                 CN(C)C(=O)Oc1ccc[n+](C)c1      activation                         inactive
34                       [O-][n+]1cccc(CO)c1      activation                         inactive
35  CCCCCCCCCCOc1cc2c(=O)c(C(=O)OCC)c[nH]c2cc1OCC      activation  -0.235% [at 8.39 µM] (inactive)
36      CC(CC=O)CC(C)(C)C (stereo not drawn)      activation                         inactive
37       O=C(CO)[C@@H](O)[C@H](O)[C@@H](O)CO      activation                         inactive
38              Cc1ncc(COP(=O)(O)O)c(C=O)c1O      activation                         inactive
39          CN(C)C(=O)Oc1cccc([N+](C)(C)C)c1      activation                         inactive
40              COc1cc(C)nc(-n2nc(C)cc2OC)n1      activation                         inactive
41       C=C(C)C(=O)OCCOCCOCCOCCOC(=O)C(=C)C      activation                         inactive
42  CC(C(=O)O)c1cccc(Oc2ccccc2)c1 (stereo not drawn)      activation                         inactive
43  CN(C)[C@@H]1C(=O)C(C(=O)NCN2CCCC2)=C(O)[C@@]2(O)C(=O)C3=C(O)c4c(O)cccc4[C@@](C)(O)C3C[C@@H]12 (stereo partly drawn)      activation                         inactive
44  C=COC(=O)C(C)(CC)CCC(C)C (stereo not drawn)      activation                         inactive
45            CC(=O)N1C[C@H](O)C[C@H]1C(=O)O      activation                         inactive
46             O=C(O)Cc1csc(-c2ccc(Cl)cc2)n1      activation                         inactive
47  CCC(C(=O)NC(=O)NC(C)=O)c1ccccc1 (stereo not drawn)      activation                         inactive
48   C=C(C)C(=O)OCC1CCCO1 (stereo not drawn)      activation                         inactive
49  COc1cc(C(=O)OC(COCCC(C)C)CN2CCOCC2)cc(OC)c1OC (stereo not drawn)      activation                         inactive
50  CN1[C@@H]2CC[C@H]1CC(OC(=O)C(O)c1ccccc1)C2 (stereo partly drawn)      activation                         inactive
51  C[C@H]1[C@H](NC(=O)/C(=N/OC(C)(C)C(=O)O)c2csc(N)n2)C(=O)N1S(=O)(=O)O (stereo in doubt)      activation                         inactive
52                               C=CCCC(=O)O      activation                         inactive
